Exercise: for every item that follows, state its recorded binding signal (PBM E-score (-0.5 to 0.5)).
# systemTested: Yer184c (Saccharomyces cerevisiae) (UniProt P39961)
# Sequence: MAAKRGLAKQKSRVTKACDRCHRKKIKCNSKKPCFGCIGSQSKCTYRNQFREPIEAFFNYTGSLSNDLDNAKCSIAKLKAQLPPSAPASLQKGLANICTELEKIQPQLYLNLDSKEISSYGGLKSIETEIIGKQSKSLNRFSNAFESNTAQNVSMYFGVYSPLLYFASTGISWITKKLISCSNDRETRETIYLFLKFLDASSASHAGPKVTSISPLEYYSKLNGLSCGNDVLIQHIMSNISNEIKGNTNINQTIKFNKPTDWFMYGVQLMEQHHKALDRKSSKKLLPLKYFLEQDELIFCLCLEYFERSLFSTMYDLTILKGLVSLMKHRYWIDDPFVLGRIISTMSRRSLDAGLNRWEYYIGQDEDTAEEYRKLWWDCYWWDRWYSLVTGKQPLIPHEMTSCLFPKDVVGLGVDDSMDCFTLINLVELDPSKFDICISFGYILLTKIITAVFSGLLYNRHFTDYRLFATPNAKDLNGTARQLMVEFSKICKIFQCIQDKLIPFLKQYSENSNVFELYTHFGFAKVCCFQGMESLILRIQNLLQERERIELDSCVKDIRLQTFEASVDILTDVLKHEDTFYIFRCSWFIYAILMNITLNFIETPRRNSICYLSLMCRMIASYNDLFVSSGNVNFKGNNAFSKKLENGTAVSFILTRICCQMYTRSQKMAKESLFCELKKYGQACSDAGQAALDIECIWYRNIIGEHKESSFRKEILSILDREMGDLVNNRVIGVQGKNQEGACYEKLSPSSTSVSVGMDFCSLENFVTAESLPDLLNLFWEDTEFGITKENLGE
# conditions: 100 nM
Just the number, please.

Challenge: Find the recorded binding signal (PBM E-score (-0.5 to 0.5)) belonging to TCGGCCGA (double strand) [8-mer TCGGCCGA] and report it.
Response given: 0.473

Challenge: Find the recorded binding signal (PBM E-score (-0.5 to 0.5)) belonging to CGCCGGCG (double strand) [8-mer CGCCGGCG] and report it.
Response given: 0.485

Challenge: Find the recorded binding signal (PBM E-score (-0.5 to 0.5)) belonging to GTCCGGAC (double strand) [8-mer GTCCGGAC] and report it.
Response given: 0.464

Challenge: Find the recorded binding signal (PBM E-score (-0.5 to 0.5)) belonging to GCCGCGGC (double strand) [8-mer GCCGCGGC] and report it.
Response given: 0.475

Challenge: Find the recorded binding signal (PBM E-score (-0.5 to 0.5)) belonging to CCGGAAAA (double strand) [8-mer CCGGAAAA] and report it.
Response given: 0.46

Challenge: Find the recorded binding signal (PBM E-score (-0.5 to 0.5)) belonging to TATCCGGA (double strand) [8-mer TATCCGGA] and report it.
Response given: 0.454

Challenge: Find the recorded binding signal (PBM E-score (-0.5 to 0.5)) belonging to TCCGCGGA (double strand) [8-mer TCCGCGGA] and report it.
Response given: 0.481

Challenge: Find the recorded binding signal (PBM E-score (-0.5 to 0.5)) belonging to TTCCGGAA (double strand) [8-mer TTCCGGAA] and report it.
Response given: 0.467

Challenge: Find the recorded binding signal (PBM E-score (-0.5 to 0.5)) belonging to CCGGCCGG (double strand) [8-mer CCGGCCGG] and report it.
Response given: 0.486

Challenge: Find the recorded binding signal (PBM E-score (-0.5 to 0.5)) belonging to ACTCCGGA (double strand) [8-mer ACTCCGGA] and report it.
Response given: 0.459
